- SYSTEM: IL-23R (Homo sapiens)
- Sequence (Q5VWK5 24-629): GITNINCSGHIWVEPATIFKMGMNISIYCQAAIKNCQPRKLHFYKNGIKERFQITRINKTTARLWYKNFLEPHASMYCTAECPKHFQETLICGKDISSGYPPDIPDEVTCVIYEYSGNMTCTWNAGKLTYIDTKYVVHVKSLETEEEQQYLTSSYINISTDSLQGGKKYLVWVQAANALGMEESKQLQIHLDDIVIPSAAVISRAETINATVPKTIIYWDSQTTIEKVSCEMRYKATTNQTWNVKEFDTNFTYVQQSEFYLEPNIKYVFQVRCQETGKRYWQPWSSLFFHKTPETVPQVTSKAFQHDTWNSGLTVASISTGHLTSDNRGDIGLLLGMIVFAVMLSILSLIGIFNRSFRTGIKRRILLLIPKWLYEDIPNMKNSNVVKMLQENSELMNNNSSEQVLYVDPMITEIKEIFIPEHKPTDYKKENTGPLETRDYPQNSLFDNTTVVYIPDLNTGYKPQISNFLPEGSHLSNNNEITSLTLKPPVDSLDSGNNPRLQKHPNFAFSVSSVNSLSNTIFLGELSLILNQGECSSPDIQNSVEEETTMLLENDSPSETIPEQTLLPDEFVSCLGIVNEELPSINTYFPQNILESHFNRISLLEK
- METHOD_SUMMARY: cell-based
MEASUREMENT_NAME: pIC50
# reply with the number alone; pIC50 is -log10 of concentration in mol/L

Query string: Any idea what its pIC50 is? The compound is CC(=O)NCCCC[C@@H]1NC(=O)[C@H](Cc2c[nH]c3c(C)cccc23)NC(=O)[C@H]([C@@H](C)O)NC(=O)[C@H](CC(N)=O)NC(=O)[C@@H](NC(C)=O)C(C)(C)SSC(C)(C)[C@@H](C(=O)N[C@@H](Cc2ccc(OCCN)cc2)C(=O)N[C@@H](Cc2ccc3ccccc3c2)C(=O)N[C@@](C)(CCCCN)C(=O)N[C@@H](CCCCNC(C)=O)C(=O)N[C@@H](CC(N)=O)C(=O)N[C@H](CC(C)C)C(=O)N[C@](C)(Cc2ccccc2)C(N)=O)NC1=O
Result string: 8.56
